Please respond with reported aptazyme ON/OFF ratio for every item in the list.
B1: Pistol ribozyme (parent)
chain: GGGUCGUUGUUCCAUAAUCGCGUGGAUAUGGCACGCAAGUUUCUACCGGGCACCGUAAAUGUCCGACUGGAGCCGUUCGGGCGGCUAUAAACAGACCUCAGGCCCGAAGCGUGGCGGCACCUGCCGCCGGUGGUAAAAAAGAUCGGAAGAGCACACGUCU

Variants of: B1
Experiment: aptazyme ON/OFF ratio, guanine; higher = stronger switching; co-transcriptional cleavage with and without guanine
API doc: respond with a numeric literal and nothing else, no unit.

Prompt: Please list aptazyme ON/OFF ratio recorded for the variant U7G U8A G9C U10C U11G C12A
Completion: 1.08

Prompt: Please list aptazyme ON/OFF ratio recorded for the variant U7G U8A U10C U11A C12G
Completion: 1.54

Prompt: Please list aptazyme ON/OFF ratio recorded for the variant U8A G9C U10C U11A C12A C13U
Completion: 1.13

Prompt: Please list aptazyme ON/OFF ratio recorded for the variant U7A U8G G9A U10A U11G C12U C13A
Completion: 1

Prompt: Please list aptazyme ON/OFF ratio recorded for the variant U7A U8C U11A C12A C13G
Completion: 1.16

Prompt: Please list aptazyme ON/OFF ratio recorded for the variant G9C U10C U11A
Completion: 1.12

Prompt: Please list aptazyme ON/OFF ratio recorded for the variant U7A U8G G9C U10A U11G C13A
Completion: 1.29

Prompt: Please list aptazyme ON/OFF ratio recorded for the variant U7A G9C U10C U11G C12U C13U
Completion: 1.06

Prompt: Please list aptazyme ON/OFF ratio recorded for the variant U8G U10G U11A C12U C13A
Completion: 1.14

Prompt: Please list aptazyme ON/OFF ratio recorded for the variant U7A U8G G9A U10G U11G C12A
Completion: 1.46

Prompt: Please list aptazyme ON/OFF ratio recorded for the variant U8C G9A U10C U11C C12U
Completion: 1.08

Prompt: Please list aptazyme ON/OFF ratio recorded for the variant U7C G9C U10A U11A
Completion: 1.05

Prompt: Please list aptazyme ON/OFF ratio recorded for the variant U7G U8A G9C U10C U11C C12A C13A
Completion: 1.05

Prompt: Please list aptazyme ON/OFF ratio recorded for the variant U7A U8A U10A C12U C13U
Completion: 1.2

Prompt: Please list aptazyme ON/OFF ratio recorded for the variant U7G G9A C12A C13A
Completion: 1.09

Prompt: Please list aptazyme ON/OFF ratio recorded for the variant U7G U8C G9A U11G C13A
Completion: 1.14

Prompt: Please list aptazyme ON/OFF ratio recorded for the variant U8C G9A U11A C12G
Completion: 1.18

Prompt: Please list aptazyme ON/OFF ratio recorded for the variant U7C U8A G9C U10C U11G C12A C13G
Completion: 1.17

Prompt: Please list aptazyme ON/OFF ratio recorded for the variant U7G U8A G9A U10C C12G
Completion: 1.15

Prompt: Please list aptazyme ON/OFF ratio recorded for the variant U7A U8A U10G U11A C12G C13A
Completion: 1.2

Prompt: Please list aptazyme ON/OFF ratio recorded for the variant U7A U8C G9C U10G C13G
Completion: 1.09

Prompt: Please list aptazyme ON/OFF ratio recorded for the variant U7C U8G G9A U11G C12U
Completion: 1.26

Prompt: Please list aptazyme ON/OFF ratio recorded for the variant U7G U8G U10G C12A C13G
Completion: 1.19

Prompt: Please list aptazyme ON/OFF ratio recorded for the variant U7A U10G U11G C12G C13A
Completion: 1.11

Prompt: Please list aptazyme ON/OFF ratio recorded for the variant U8A G9U U10A U11C C12A
Completion: 1.07

Prompt: Please list aptazyme ON/OFF ratio recorded for the variant U7G U8A G9C C13G
Completion: 1.02
